# measured target: mu receptor (Mus musculus)
# Construct: Five CF-1 male mice (Charles River, Portage, Mich.); from tissue; host or cells: whole living CF-1 male mice (in vivo)
# Sequence (P42866 whole entry): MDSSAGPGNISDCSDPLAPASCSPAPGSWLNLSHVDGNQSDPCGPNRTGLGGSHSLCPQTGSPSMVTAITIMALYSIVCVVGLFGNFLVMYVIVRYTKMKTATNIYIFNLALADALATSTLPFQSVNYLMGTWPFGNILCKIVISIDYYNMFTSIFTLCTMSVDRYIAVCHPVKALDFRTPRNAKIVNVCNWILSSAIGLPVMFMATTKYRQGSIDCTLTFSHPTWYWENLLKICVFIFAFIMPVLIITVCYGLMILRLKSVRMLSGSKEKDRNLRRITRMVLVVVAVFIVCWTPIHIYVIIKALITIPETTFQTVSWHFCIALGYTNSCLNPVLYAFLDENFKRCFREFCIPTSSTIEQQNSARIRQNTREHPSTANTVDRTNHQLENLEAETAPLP
# procedure summary: Mouse writhing assay, antagonism of morphine analgesia (mu)
# Assay type: in vivo, CF-1 male mice
# condition notes: sc, read-out: Mu AD50
Counter-ions that a name gives are not always drawn.
Items are presented alongside their recorded ED50.

{"columns": ["compound", "measured target", "u", "ED50"],
 "data": [
  ["C[C@@H]1CN(CCCc2cccs2)CC[C@]1(C)c1cccc(O)c1 (stereo in doubt) [Example 37, hydrochloride]", "mu receptor (Mus musculus)", "mg/kg", 0.24],
  ["CC1CN(CC2CCCC2)CCC1(C)c1cccc(O)c1 (centres unmarked) [Example 5, hydrochloride]", "mu receptor (Mus musculus)", "mg/kg", 1.01],
  ["CC1CN(CCC2CCCC2)CCC1(C)c1cccc(O)c1 (centres unmarked) [Example 6, hydrochloride]", "mu receptor (Mus musculus)", "mg/kg", 0.13],
  ["C[C@@H]1CN(CC[C@@H](O)C2CCCCC2)CC[C@]1(C)c1cccc(O)c1 [Example 26]", "mu receptor (Mus musculus)", "mg/kg", 0.07],
  ["C[C@H]1CN(CC[C@@H](O)C2CCCCC2)CC[C@@]1(C)c1cccc(O)c1 [Example 25]", "mu receptor (Mus musculus)", "mg/kg", 0.03],
  ["CCCC(O)CCN1CC[C@@](C)(c2cccc(O)c2)[C@@H](C)C1 (relative stereo) [Example 30, hydrochloride]", "mu receptor (Mus musculus)", "mg/kg", 0.11],
  ["CCCCCCCN1CCC(C)(c2cccc(O)c2)C(C)C1 (centres unmarked) [Example 8, hydrochloride]", "mu receptor (Mus musculus)", "mg/kg", 0.21],
  ["CCCCCN1CCC(C)(c2cccc(O)c2)C(C)C1 (centres unmarked) [Example 14, hydrochloride]", "mu receptor (Mus musculus)", "mg/kg", 0.37]
]}

###

# measured target: kappa receptor (Mus musculus, UniProt P33534)
# Construct: Five CF-1 male mice (Charles River, Portage, Mich.); from tissue; host or cells: whole living CF-1 male mice (in vivo)
# Sequence (P33534 whole entry): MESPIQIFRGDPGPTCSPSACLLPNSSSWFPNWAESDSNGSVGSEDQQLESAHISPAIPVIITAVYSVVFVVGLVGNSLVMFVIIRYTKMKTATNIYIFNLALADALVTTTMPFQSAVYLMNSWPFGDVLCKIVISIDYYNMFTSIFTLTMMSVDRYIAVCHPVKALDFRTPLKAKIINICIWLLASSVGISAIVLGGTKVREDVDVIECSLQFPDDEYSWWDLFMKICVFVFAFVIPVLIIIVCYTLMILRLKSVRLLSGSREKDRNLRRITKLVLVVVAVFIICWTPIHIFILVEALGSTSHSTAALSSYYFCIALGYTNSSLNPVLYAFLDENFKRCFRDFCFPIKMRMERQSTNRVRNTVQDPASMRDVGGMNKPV
# procedure summary: in vivo
# Parameters: species or system CF-1 male mice
# condition notes: sc, read-out: Kappa AD50
Structures can show the parent of a compound that is named as a salt.
Items are presented alongside their recorded ED50.

{"columns": ["molecule", "measured target", "u", "ED50"],
 "data": [
  ["C[C@H]1CN(CC[C@@H](O)C2CCCCC2)CC[C@@]1(C)c1cccc(O)c1", "kappa receptor (Mus musculus, UniProt P33534)", "mg/kg", 0.36],
  ["C[C@H]1CN(CCC(O)C2CCCCC2)CC[C@@]1(C)c1cccc(O)c1 (relative stereo) [Example 27, hydrochloride]", "kappa receptor (Mus musculus, UniProt P33534)", "mg/kg", 0.14],
  ["CC1CN(CC2CCCC2)CCC1(C)c1cccc(O)c1 (stereo not shown) [Example 5, hydrochloride]", "kappa receptor (Mus musculus, UniProt P33534)", "mg/kg", 0.54],
  ["C[C@H]1CN(CCCc2cccs2)CC[C@@]1(C)c1cccc(O)c1 (stereo in doubt)", "kappa receptor (Mus musculus, UniProt P33534)", "mg/kg", 0.11]
]}
